Data origin, for the record: PubChem BioAssay (NCI)

For each entry below, report its TGI value.
System: SW-620 colon
Experiment: NCI tumour cell line growth inhibition, 48 h

Would you kindly share the measured TGI for Brc1ccc(N=Nc2ccc3ccccc3n2)cc1 ?
> 100 µM

Repeat with CNC(=O)OCc1nc(N=[N+]=[N-])n(C)c1COC(=O)NC
> 100 µM

Repeat with COc1cccc2c1C(=O)c1c(O)c3c(c(O)c1C2=O)C[C@@](O)(C(C)=O)C[C@@H]3OC1CC(O)C(O)C(C)O1 (stereo partly drawn)
35.5 µM

----------
System: BT-549 breast
Experiment: NCI tumour cell line growth inhibition, 48 h
READOUT_NAME: TGI

Would you kindly share the measured TGI for C=C(C[C@@H](O)[C@H](C)NC(=O)OCc1ccccc1)C(=O)OC(C)(C)C ?
> 100 µM

Repeat with N/N=C(/CC(O)(C(F)(F)F)C(F)(F)F)c1ccccc1
> 10 µM

Repeat with COc1cc(O)c2c(=O)c(OC)c(-c3ccc(OC)c(OC)c3)oc2c1.[Zn+2]
> 100 µM
